Give glass transition temperature for every item shown.
// note: answer is a bare numeric in °C

May I ask what glass transition temperature has been recorded for *CC(*)c1ccc(CC)cc1 (repeat unit) ?
71.40

May I ask what glass transition temperature has been recorded for *CC(*)c1ccccc1COCCC(C)C (repeat unit) ?
78.00

May I ask what glass transition temperature has been recorded for *Oc1ccc(-c2ccc(Oc3ccc(C(C)(C)c4ccc(*)cc4)cc3)cc2)cc1 (repeat unit) ?
154.00

May I ask what glass transition temperature has been recorded for *CC1CCCC(CNC(=O)CCCCC(=O)N*)C1 (repeat unit) ?
107.00

May I ask what glass transition temperature has been recorded for */C=C/C1CC(*)C2C(=O)N(CCCCCC)C(=O)C12 (repeat unit) ?
87.00
